System: 429239-143-T-J1-PDC complex spheroid viability;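 further: luminescence signal used as surrogate measure of viable cells; spheroids exposed to compounds for seven days before readout; 100% = DMSO vehicle control viability as luminescence relative to vehicle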
assay method text: Anticancer human tumor 429239-143-T-J1-PDC patient-derived small cell lung carcinoma cell line growth inhibition [POLQ]
condition label: second compound 1 µM; first compound 0.316 µM; active compounds read low
assay metric: viability, T/C (%)
Give your result in % as a bare value.

{"columns": ["compound", "assay metric", "unit text", "assay result"],
 "data": [
  ["COc1ccc([C@@H](O)c2cc(-c3ncnc4cc(N5CCOCC5)ccc34)c(F)cc2Cl)nn1 + Cc1cccc(N(C)C(=O)C2C(O)CCN2c2nc(C)cc(C(F)(F)F)c2C#N)c1", "viability, T/C", "%", 98.7],
  ["CC1COCCN1c1cc(C2(S(C)(=N)=O)CC2)nc(-c2ccnc3[nH]ccc23)n1 (stereo not drawn) + Cc1cccc(N(C)C(=O)C2C(O)CCN2c2nc(C)cc(C(F)(F)F)c2C#N)c1", "viability, T/C", "%", 89.7],
  ["CCc1cc2c(N3CCc4c(cc(Cn5ccnc5)cc4-c4cn(C)nc4C(F)(F)F)C3=O)ccnc2c(OC)n1 + Cc1cccc(N(C)C(=O)C2C(O)CCN2c2nc(C)cc(C(F)(F)F)c2C#N)c1", "viability, T/C", "%", 89.2],
  ["CC1COCCN1c1cc(C2(S(C)(=N)=O)CC2)nc(-c2ccnc3[nH]ccc23)n1 (stereo not drawn) + Nc1ccc(C#CCN(C(=O)Cc2ncc(C(F)(F)F)cc2C(F)(F)F)c2ccc(F)cc2)nn1", "viability, T/C", "%", 90.2],
  ["COc1ccc([C@@H](O)c2cc(-c3ncnc4cc(N5CCOCC5)ccc34)c(F)cc2Cl)nn1 + COC1C(OC(N)=O)C(O)C(Oc2ccc3c(O)c(NC(=O)c4ccc(O)c(CC=C(C)C)c4)c(=O)oc3c2C)OC1(C)C", "viability, T/C", "%", 92.5]
]}

Sample C=CC(=O)N1CCN(c2nc(=O)n(-c3c(C)ccnc3C(C)C)c3nc(-c4c(O)cccc4F)c(F)cc23)C(C)C1 (stereo not drawn) + Cc1cccc(N(C)C(=O)C2C(O)CCN2c2nc(C)cc(C(F)(F)F)c2C#N)c1 — what was its viability, T/C?
104

Sample COc1cc2cc(C(=O)CCC(=O)O)sc2cc1OC + Cc1cccc(N(C)C(=O)C2C(O)CCN2c2nc(C)cc(C(F)(F)F)c2C#N)c1 — what was its viability, T/C?
94.1

Sample CC(C)n1c(=O)n(C)c2cnc3cc(F)c(-c4ccc(OCCCN5CCCCC5)nc4)cc3c21 + Cc1cccc(N(C)C(=O)C2C(O)CCN2c2nc(C)cc(C(F)(F)F)c2C#N)c1 — what was its viability, T/C?
94.2
